system: SF-539 CNS; test: NCI tumour cell line growth inhibition, 48 h
Measured TGI, listed per entry.

Take a look at these entries with their results.
- Compound: "COc1ccc(/C=c2/[nH]c(=O)/c(=C\\c3ccc(OCc4ccccc4)cn3)[nH]c2=O)cc1"
  TGI: "> 100 µM"
- Compound: "O=C1CN2CCC1C/C2=C\\c1ccnc2c(Cl)cccc12 (stereo unspecified)"
  TGI: "> 100 µM"
- Compound: "COc1c(C(=O)O)cccc1-c1cccc(C(=O)NCCN(CCNC(=O)c2cccc(-c3cccc(C(=O)O)c3OC)c2OC)CCNC(=O)c2cccc(-c3cccc(C(=O)O)c3OC)c2OC)c1OC"
  TGI: "> 100 µM"
- Compound: "Cn1c(Cc2ccccc2)nc2cc3ccccc3cc21"
  TGI: "37.4 µM"
- Compound: "O=C(O)C(Cc1ccccc1)N1C(=O)c2ccccc2C1=O (stereo unspecified)"
  TGI: "> 100 µM"
- Compound: "O=C1OC(c2ccccc2)=N/C1=C/c1cccs1"
  TGI: "> 100 µM"
- Compound: "c1ccc2c(c1)n1c(N3CCOCC3)[n+]3ccccc3c1c1c3cccc[n+]3c(N3CCOCC3)n21"
  TGI: "> 100 µM"
- Compound: "c1cncc(-c2cc(-c3cc(-c4cccnc4)n[nH]3)[nH]n2)c1"
  TGI: "> 100 µM"

## Input Find the measured TGI: item `COc1ccc(C(=O)O)c2c(=O)c3ccccc3[nH]c12` , target or system SF-539 CNS.
## Output > 100 µM

## Input Find the measured TGI: item `Cc1cccc(NC(=O)CSc2nnc(Cc3ccccc3)o2)c1` , target or system SF-539 CNS.
## Output > 100 µM

## Input Find the measured TGI: item `O=C1c2scnc2-c2nccc3c2c1nc1ccccc13` , target or system SF-539 CNS.
## Output 1.54 µM

## Input Find the measured TGI: item `O=C(Nc1ccc(N=Nc2ccccc2)cc1)Sc1ccccc1C(=O)O` , target or system SF-539 CNS.
## Output > 100 µM

###

system: NCI-H460 lung; test: NCI tumour cell line growth inhibition, 48 h
Reported Property: TGI

Take a look at these entries with their results.
- Molecule: "Cc1ccc(NC(=O)/C(=N/NC(=O)CC#N)C2C(=O)N(c3ccccc3)N=C2N)cc1C (centres undefined)"
  Measured Target: "NCI-H460 lung"
  TGI: "> 100 µM"
- Molecule: "CCC[CH2][Sn]([CH2]CCC)([O]C(=O)c1cccc(F)c1F)[O][Sn]([CH2]CCC)([CH2]CCC)[O]C(=O)c1cccc(F)c1F"
  Measured Target: "NCI-H460 lung"
  TGI: "2.62 µM"
- Molecule: "NC1=NN(c2ccccc2)C(=O)C1C(=O)C(=O)Nc1cccc(C(F)(F)F)c1 (centres undefined)"
  Measured Target: "NCI-H460 lung"
  TGI: "> 100 µM"

## Input # get_value(readout='TGI', item= COC(=O)C1=C(C(=O)OC)C(C(=O)c2ccccc2)N2N=C(c3ccc(Cl)cc3)C=CC12 (centres undefined) )
## Output > 100 µM

###

Measured TGI, listed per entry.
tested on: XF 498 CNS; experiment: NCI tumour cell line growth inhibition, 48 h

- Compound: "Cc1c(C(=O)Nc2ccc(Cl)c(C(F)(F)F)c2)oc2cc(O)ccc2/c1=N\\NC(N)=S"
  TGI: "> 100 µM"

## Input # get_value(readout='TGI', item= CCCCC1(OC(=O)CCC(=O)O)CCC2(CCC(C)C(C/C=C(C)/C=C/C(O)C(C)/C=C/C(=O)O)O2)OC1CC/C(C)=C/C(=O)O (configuration not stated) )
## Output 4.66 µM

## Input # get_value(readout='TGI', item= CC1=C(N(C)C)C(=O)c2nc3n(c2C1=O)CCC3OC(N)=O (configuration not stated) )
## Output 38.8 µM

## Input # get_value(readout='TGI', item= `O=C(/C=C(\O)C(=O)O)/C=C(\O)c1ccccc1Cl` )
## Output > 100 µM

###

system: SK-MEL-28 melanoma; experiment: NCI tumour cell line growth inhibition, 48 h
Measured TGI, listed per entry.

- Compound: "N=C(N)C(N=Nc1ccccc1)C(=N)N (stereo not given)"
  TGI: "> 100 µM"
- Compound: "Cn1cc(C(=O)/C(Cl)=C(\\Cl)C(=O)O)c2ccccc21"
  TGI: "> 100 µM"
- Compound: "CN=C1Nc2ccccc2C(=S)N2CSC[C@@H]12"
  TGI: "> 100 µM"
- Compound: "CCC(=O)Nc1ccc2c(c1)CN1C(=O)c3ccccc3C1=N2"
  TGI: "> 100 µM"
- Compound: "COc1ccccc1NC(=S)Nc1cccc(C)n1"
  TGI: "> 100 µM"
- Compound: "COc1ccc(OC)c2sc(N3C(=O)/C(=C/c4ccccc4S)N=C3c3ccccc3)nc12"
  TGI: "> 100 µM"
- Compound: "O=C(Nc1ccc(N=Nc2ccccc2)cc1)Sc1ccccc1C(=O)O"
  TGI: "> 100 µM"
- Compound: "Clc1cccc(Cl)c1C1SCc2nc3cc4ccccc4cc3n21 (stereo not given)"
  TGI: "> 100 µM"
- Compound: "O=C(/C=C(\\O)C(=O)O)/C=C(\\O)c1ccccc1Cl"
  TGI: "> 100 µM"
- Compound: "Cc1cc(S(=O)(=O)/N=C(\\N)n2nc(C)c(C)c2C)c(SCc2ccccc2)cc1Cl"
  TGI: "> 100 µM"

## Input # get_value(readout='TGI', item= CCCCCCCCO/N=C\c1c2c(O)c3c(O)c(C)c4c(c3c1O)C(=O)C(C)(O/C=C\C(OC)C(C)C(OC(C)=O)C(C)C(O)C(C)C(O)C(C)/C=C\C=C(\C)C(=O)N2)O4 (stereo not given) )
## Output 4.17 µM

## Input # get_value(readout='TGI', item= `COc1ccc(-c2cc(=O)c3c(O)c(OC)c(O)cc3o2)cc1O` )
## Output > 100 µM

## Input # get_value(readout='TGI', item= `CCC/C(Cl)=N\OC(=O)Nc1ccc(Br)cc1` )
## Output 32.5 µM

## Input # get_value(readout='TGI', item= CCC(C)C(NC(=O)C(CCCCN)NC(=O)C(NC(=O)C(CCC(N)=O)NC(=O)C(CCCNC(=N)N)NC(C)=O)C(C)CC)C(=O)NC(Cc1c[nH]c2ccccc12)C(=O)NC(Cc1ccccc1)C(=O)NC(CCC(N)=O)C(=O)NC(CC(N)=O)C(=O)NC(CCCNC(=N)N)C(=O)NC(CCCNC(=N)N)C(=O)NC(CCSC)C(=O)NC(CCCCN)C(=O)NC(Cc1c[nH]c2ccccc12)C(=O)NC(CCCCN)C(=O)NC(CCCCN)C(N)=O (stereo not given) )
## Output > 50 µM

## Input # get_value(readout='TGI', item= `Cc1cc(Nc2ncc(Cl)c(Nc3ccccc3S(=O)(=O)C(C)C)n2)c(OC(C)C)cc1C1CCNCC1` )
## Output 2.47 µM

## Input # get_value(readout='TGI', item= `CCCOc1ccc(/C=C/C2=[N+](CCO)CCO2)cc1` )
## Output > 100 µM

## Input # get_value(readout='TGI', item= `C1=Cc2nc1c(-c1ccccc1)c1ccc([n-]1)c(-c1ccccc1)c1nc(c(-c3ccccc3)c3ccc([n-]3)c2-c2ccccc2)C=C1.[Zn+2]` )
## Output > 100 µM

## Input # get_value(readout='TGI', item= CNC(=O)C(C)NC(=O)C(Cc1ccccc1)NC(=O)OC(C)(C)C (stereo not given) )
## Output > 100 µM

## Input # get_value(readout='TGI', item= CCOC(=O)C1=C(C)C2C3C(=O)NC(=O)C3C1(C)C1C(=O)NC(=O)C21 (stereo not given) )
## Output > 100 µM

## Input # get_value(readout='TGI', item= `O[C@H]1[C@H]2[C@H](O)CCCN2C[C@H]1O` )
## Output > 100 µM

###

system: SF-268 CNS; assay: NCI tumour cell line growth inhibition, 48 h
Reported Property: TGI

- Compound: "O=C(Nc1cccc(-c2nc3ccccc3[nH]2)c1)c1cccc(NC(=O)c2ccco2)c1"
  Measured Target: "SF-268 CNS"
  TGI: "3.78 µM"
- Compound: "NC1=NN(c2ccccc2)C(=O)C1C(=O)C(=O)Nc1cccc(C(F)(F)F)c1 (configuration not stated)"
  Measured Target: "SF-268 CNS"
  TGI: "> 100 µM"
- Compound: "CNC(=O)C(C)NC(=O)C(Cc1ccccc1)NC(=O)OC(C)(C)C (configuration not stated)"
  Measured Target: "SF-268 CNS"
  TGI: "> 100 µM"
- Compound: "C1=Cc2nc1c(-c1ccccc1)c1ccc([n-]1)c(-c1ccccc1)c1nc(c(-c3ccccc3)c3ccc([n-]3)c2-c2ccccc2)C=C1.[Zn+2]"
  Measured Target: "SF-268 CNS"
  TGI: "> 100 µM"
- Compound: "CNC(=O)c1ccc(Nc2nc(OC3CCCC3)c3c(-c4ccc5nc(C)oc5c4)c[nH]c3n2)c(OC)c1"
  Measured Target: "SF-268 CNS"
  TGI: "> 100 µM"
- Compound: "COC1CCC(OS(C)(=O)=O)CO1 (configuration not stated)"
  Measured Target: "SF-268 CNS"
  TGI: "> 100 µM"
- Compound: "O=C(Nc1ccc(N=Nc2ccccc2)cc1)Sc1ccccc1C(=O)O"
  Measured Target: "SF-268 CNS"
  TGI: "> 100 µM"
- Compound: "Cc1c2c(cc3c1[nH]c1ccccc13)C(c1ccc(F)cc1)=NCC2"
  Measured Target: "SF-268 CNS"
  TGI: "19.6 µM"

## Input # get_value(readout='TGI', item= O=C1CC(N2C(=O)/C(=C/C(Cl)=C\c3ccc([N+](=O)[O-])cc3)SC2=S)C(=O)N1c1ccc(Cl)cc1 (configuration not stated) )
## Output > 100 µM

## Input # get_value(readout='TGI', item= CCCCCCCCO/N=C\c1c2c(O)c3c(O)c(C)c4c(c3c1O)C(=O)C(C)(O/C=C\C(OC)C(C)C(OC(C)=O)C(C)C(O)C(C)C(O)C(C)/C=C\C=C(\C)C(=O)N2)O4 (configuration not stated) )
## Output 8.18 µM

## Input # get_value(readout='TGI', item= c1ccc2c(OCC3CO3)ccc(OCC3CO3)c2c1 (configuration not stated) )
## Output 12.1 µM

## Input # get_value(readout='TGI', item= `COc1c(C(=O)O)cccc1-c1cccc(C(=O)NCCN(CCNC(=O)c2cccc(-c3cccc(C(=O)O)c3OC)c2OC)CCNC(=O)c2cccc(-c3cccc(C(=O)O)c3OC)c2OC)c1OC` )
## Output > 100 µM

## Input # get_value(readout='TGI', item= C/C(=C\c1csc(C)n1)[C@@H]1C[C@@H]2O[C@]2(C)CCC[C@H](C)[C@H](O)[C@@H](C)C(=O)C(C)(C)[C@@H](O)CC(=O)O1 (tested in a mixture with another compound) )
## Output > 1 µM

## Input # get_value(readout='TGI', item= `N#C/C(=C\c1ccc(Cl)cc1)n1nnc2cc(F)c(F)cc21` )
## Output 4.45 µM

Values from PubChem BioAssay (NCI)
